Measured values drawn from the Human Domainome abundance scans (Beltran et al. 2025) for this set.

B1: Transcription elongation factor A N-terminal and central domain-containing protein, residues 30 to 77; numbered along this chain, Q8N8B7 (parent)
chain: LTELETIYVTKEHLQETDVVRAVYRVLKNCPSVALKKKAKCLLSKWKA

# Variants of: B1
# test.name: abundance fitness (aPCA) (normalised: wild type 0, dead -1); higher = more abundant; growth selection in yeast, the domain comes from the species named
# run.parameters: Homo sapiens
# label = met if abundance fitness >= -0.3 else not met

variant.descriptor: V26M
classification: met
//
variant.descriptor: R21M
classification: not met
//
variant.descriptor: S44A
classification: met
//
variant.descriptor: K28G
classification: not met
//
variant.descriptor: V20N
classification: not met
//
variant.descriptor: Y24I
classification: met
//
variant.descriptor: V19S
classification: not met
//
variant.descriptor: K11E
classification: met
//
variant.descriptor: E16Q
classification: met
//
variant.descriptor: L1M
classification: met
//
variant.descriptor: K38A
classification: met
//
variant.descriptor: V33H
classification: not met
//
variant.descriptor: T17A
classification: not met
//
variant.descriptor: L43Y
classification: met
//
variant.descriptor: K37E
classification: met
//
variant.descriptor: L27V
classification: not met
//
variant.descriptor: V9G
classification: met
//
variant.descriptor: T2S
classification: met
//
variant.descriptor: R25E
classification: not met
//
variant.descriptor: Y24W
classification: met
//
variant.descriptor: Q15A
classification: met
//
variant.descriptor: D18Q
classification: met
